Test system: BaF3 FLT3 840G+S mutant cells
TEST_NAME: MTT growth inhibition assay, BaF3 FLT3 840G+S cells
Format: cell-based
EXPERIMENTAL_CONTEXT: Mus musculus, no IL-3, 48 h, read-out: Proliferation IC50
pIC50: −log10 of the molar value.
RESULT_TYPE: pIC50

Consider the following illustrative entries.
CO[C@@H]1[C@H](N(C)C(=O)c2ccccc2)C[C@H]2O[C@]1(C)n1c3ccccc3c3c4c(c5c6ccccc6n2c5c31)C(=O)NC4    7.92
CCN(CC)CCNC(=O)c1c(C)[nH]c(/C=C2\C(=O)Nc3ccc(F)cc32)c1C    8.40

I = CC1(COc2ccc3c(c2)ncn3-c2ccc3cccc(N4CCC(N)CC4)c3n2)COC1
II = Cc1ccc(F)c(NC(=O)Nc2ccc(-c3cccc4[nH]nc(N)c34)cc2)c1
Which gives the smaller pIC50 number: I or II ? # answer = label of selected item
I
(I: 7.08, II: 8.68)

P = CNC(=O)c1cc(Oc2ccc(NC(=O)Nc3ccc(Cl)c(C(F)(F)F)c3)cc2)ccn1
Q = O=C(c1ccc(/C=C/c2n[nH]c3ccccc23)cc1)N1CCNCC1
Which gives the smaller pIC50 number: P or Q ? # answer = label of selected item
Q
(Q: 7.46, P: 8.30)

###

System: BaF3/ITD cells
TEST_NAME: MTT growth inhibition assay, BaF3 FLT3-ITD cells
Assay type: cell-based
EXPERIMENTAL_CONTEXT: Mus musculus, no IL-3, 48 h, read-out: Proliferation IC50
RESULT_TYPE: IC50 (nM)

P = O=C(c1ccc(/C=C/c2n[nH]c3ccccc23)cc1)N1CCNCC1
Q = Cc1cc2ncc(-c3ccccc3)nc2cc1C
R = CNC(=O)c1cc(Oc2ccc(NC(=O)Nc3ccc(Cl)c(C(F)(F)F)c3)cc2)ccn1
S = Cc1ccc(F)c(NC(=O)Nc2ccc(-c3cccc4[nH]nc(N)c34)cc2)c1
T = CCN(CC)CCNC(=O)c1c(C)[nH]c(/C=C2\C(=O)Nc3ccc(F)cc32)c1C
Let's sort these by IC50, smallest first. Go ahead? To answer, write out the labels according to the requested order.
S, T, R, P, Q

###

Test system: BaF3 FLT3 I836L+D mutant cells
TEST_NAME: MTT growth inhibition assay, BaF3 FLT3 I836L+D cells
Format: cell-based
EXPERIMENTAL_CONTEXT: no IL-3, 48 h, read-out: Proliferation IC50
RESULT_TYPE: IC50 (nM)
Expressed in nM, but write only the number.

What value of IC50 has been reported for the following compound? `CNC(=O)[C@@]1(N)C[C@H]2O[C@]1(C)n1c3ccccc3c3c4c(c5c6ccccc6n2c5c31)C(=O)NC4`
11.7

###

Tested on: BaF3 FLT3 D593D mutant cells
TEST_NAME: MTT growth inhibition assay, BaF3 FLT3 D593D cells
Format: cell-based
EXPERIMENTAL_CONTEXT: no IL-3, 48 h, read-out: Proliferation IC50
RESULT_TYPE: IC50 (nM)
Expressed in nM, but write only the number.

What value of IC50 has been reported for the following compound? `CNC(=O)[C@@]1(N)C[C@H]2O[C@]1(C)n1c3ccccc3c3c4c(c5c6ccccc6n2c5c31)C(=O)NC4`
2.8
